So I've got a bunch of compounds here, and I need their IE50 values.
Tested on: Plasma
Test: Antiplatelet activity in human platelet rich plasma assessed as inhibition of ADP-induced platelet aggregation
Format: functional
Give just the numeric value; µM need not be written.

Query: I have this compound here, `CC(=O)Oc1ccccc1C(=O)O` , and I need its recorded IE50.
Reply: 118

Query: I have this compound here, `CC/C=C1\OC(=O)c2ccccc21` , and I need its recorded IE50.
Reply: 171

Query: I have this compound here, CCCCC1OC(=O)c2ccccc21 (stereo not drawn) [RAC-3-N-BUTYLPHTHALIDE] , and I need its recorded IE50.
Reply: 170

Query: I have this compound here, CCC/C=C1\OC(=O)c2ccccc21 [Z-butylidenephthalide] , and I need its recorded IE50.
Reply: 204

Query: I have this compound here, CCCC[C@@H]1OC(=O)c2ccccc21 [(3S)-BUTYLPHTHALIDE] , and I need its recorded IE50.
Reply: 193

Query: I have this compound here, `CCCCC[C@@H]1OC(=O)c2ccccc21` , and I need its recorded IE50.
Reply: 203

Query: I have this compound here, CCCCCC1OC(=O)c2ccccc21 (stereo not drawn) , and I need its recorded IE50.
Reply: 180

Query: I have this compound here, `CC(C)C/C=C1\OC(=O)c2ccccc21` , and I need its recorded IE50.
Reply: 204

Query: I have this compound here, `CCC[C@@H]1OC(=O)c2ccccc21` , and I need its recorded IE50.
Reply: 142

Query: I have this compound here, `CC[C@H]1OC(=O)c2ccccc21` , and I need its recorded IE50.
Reply: 114

Query: I have this compound here, CCCCCCC1OC(=O)c2ccccc21 (stereo not drawn) , and I need its recorded IE50.
Reply: 220

Query: I have this compound here, `CCCCCCC[C@@H]1OC(=O)c2ccccc21` , and I need its recorded IE50.
Reply: 176

Query: I have this compound here, `CC(C)CC[C@@H]1OC(=O)c2ccccc21` , and I need its recorded IE50.
Reply: 207

Query: I have this compound here, `CC[C@@H]1OC(=O)c2ccccc21` , and I need its recorded IE50.
Reply: 209

Query: I have this compound here, CCCCCCCC1OC(=O)c2ccccc21 (stereo not drawn) , and I need its recorded IE50.
Reply: 153

Query: I have this compound here, CCCC1OC(=O)c2ccccc21 (stereo not drawn) , and I need its recorded IE50.
Reply: 133

Query: I have this compound here, `CCCC/C=C1\OC(=O)c2ccccc21` , and I need its recorded IE50.
Reply: 201

Query: I have this compound here, `CCCCC/C=C1\OC(=O)c2ccccc21` , and I need its recorded IE50.
Reply: 243

Query: I have this compound here, `CCCCCC/C=C1\OC(=O)c2ccccc21` , and I need its recorded IE50.
Reply: 289

Query: I have this compound here, `CCC[C@H]1OC(=O)c2ccccc21` , and I need its recorded IE50.
Reply: 112

Query: I have this compound here, `CCCCC[C@H]1OC(=O)c2ccccc21` , and I need its recorded IE50.
Reply: 178

Query: I have this compound here, `CCCCCC[C@H]1OC(=O)c2ccccc21` , and I need its recorded IE50.
Reply: 139

Query: I have this compound here, `CCCC[C@H]1OC(=O)c2ccccc21` , and I need its recorded IE50.
Reply: 94.7

Query: I have this compound here, CCC1OC(=O)c2ccccc21 (stereo not drawn) , and I need its recorded IE50.
Reply: 164

Query: I have this compound here, CC(C)CCC1OC(=O)c2ccccc21 (stereo not drawn) , and I need its recorded IE50.
Reply: 201

Query: I have this compound here, `CC(C)CC[C@H]1OC(=O)c2ccccc21` , and I need its recorded IE50.
Reply: 116

Query: I have this compound here, `CCCCCCC[C@H]1OC(=O)c2ccccc21` , and I need its recorded IE50.
Reply: 143

Query: I have this compound here, `CCCCCC[C@@H]1OC(=O)c2ccccc21` , and I need its recorded IE50.
Reply: 217
